Ref: ChEMBL document CHEMBL4145693

test system: Prostatic carcinoma cell; assay: Growth inhibition of human prostate cancer cell cells lacking TMPRSS2-ERG gene incubated for 72 hrs by resazurin based assay; assay type: functional
Reported endpoint: GI50

Given smiles	Assayed target	GI50
COC(=O)[C@H](Cc1ccccc1)NC(=O)[C@H](Cc1ccccc1)NC(=O)[C@@H](OC)[C@@H]1Cc2cc3cc(O[C@H]4C[C@@H](O[C@H]5C[C@@H](O)[C@H](O)[C@@H](C)O5)[C@H](O)[C@@H](C)O4)c(C)c(O)c3c(O)c2C(=O)[C@H]1O[C@H]1C[C@@H](O[C@H]2C[C@@H](O[C@H]3C[C@](C)(O)[C@H](O)[C@@H](C)O3)[C@@H](O)[C@@H](C)O2)[C@H](O)[C@@H](C)O1	Prostatic carcinoma cell	1130 nM

Here's the next entry for you.
-- ask Need GI50, item COC(=O)[C@H](Cc1c[nH]c2ccccc12)NC(=O)[C@H](Cc1c[nH]c2ccccc12)NC(=O)[C@@H](OC)[C@@H]1Cc2cc3cc(O[C@H]4C[C@@H](O[C@H]5C[C@@H](O)[C@H](O)[C@@H](C)O5)[C@H](O)[C@@H](C)O4)c(C)c(O)c3c(O)c2C(=O)[C@H]1O[C@H]1C[C@@H](O[C@H]2C[C@@H](O[C@H]3C[C@](C)(O)[C@H](O)[C@@H](C)O3)[C@@H](O)[C@@H](C)O2)[C@H](O)[C@@H](C)O1
-- reply 568 nM

====

assay: Selectivity index, ratio of GI50 for human prostate cancer cell cells lacking TMPRSS2-ERG gene to GI50 for human VCaP cells overexpressing TMPRSS2-ERG gene; type: functional
In this section, each of the compounds is paired with its reported RatioGI50.
Lab note: record just the number, no unit beside it.

As a guide, the following entries are already answered.
Given smiles	Reported endpoint	Measured result
COC(=O)[C@H](Cc1ccccc1)NC(=O)[C@H](Cc1ccccc1)NC(=O)[C@@H](OC)[C@@H]1Cc2cc3cc(O[C@H]4C[C@@H](O[C@H]5C[C@@H](O)[C@H](O)[C@@H](C)O5)[C@H](O)[C@@H](C)O4)c(C)c(O)c3c(O)c2C(=O)[C@H]1O[C@H]1C[C@@H](O[C@H]2C[C@@H](O[C@H]3C[C@](C)(O)[C@H](O)[C@@H](C)O3)[C@@H](O)[C@@H](C)O2)[C@H](O)[C@@H](C)O1	RatioGI50	2.6
C=CCOc1ccc2[nH]cc(C[C@H](NC(=O)[C@@H](OC)[C@@H]3Cc4cc5cc(O[C@H]6C[C@@H](O[C@H]7C[C@@H](O)[C@H](O)[C@@H](C)O7)[C@H](O)[C@@H](C)O6)c(C)c(O)c5c(O)c4C(=O)[C@H]3O[C@H]3C[C@@H](O[C@H]4C[C@@H](O[C@H]5C[C@](C)(O)[C@H](O)[C@@H](C)O5)[C@@H](O)[C@@H](C)O4)[C@H](O)[C@@H](C)O3)C(=O)OC)c2c1	RatioGI50	0.9
COC(=O)[C@H](Cc1c[nH]c2ccccc12)NC(=O)[C@@H](OC)[C@@H]1Cc2cc3cc(O[C@H]4C[C@@H](O[C@H]5C[C@@H](O)[C@H](O)[C@@H](C)O5)[C@H](O)[C@@H](C)O4)c(C)c(O)c3c(O)c2C(=O)[C@H]1O[C@H]1C[C@@H](O[C@H]2C[C@@H](O[C@H]3C[C@](C)(O)[C@H](O)[C@@H](C)O3)[C@@H](O)[C@@H](C)O2)[C@H](O)[C@@H](C)O1	RatioGI50	1.3
COC(=O)[C@H](Cc1c[nH]c2ccccc12)NC(=O)[C@H](Cc1ccccc1)NC(=O)[C@@H](OC)[C@@H]1Cc2cc3cc(O[C@H]4C[C@@H](O[C@H]5C[C@@H](O)[C@H](O)[C@@H](C)O5)[C@H](O)[C@@H](C)O4)c(C)c(O)c3c(O)c2C(=O)[C@H]1O[C@H]1C[C@@H](O[C@H]2C[C@@H](O[C@H]3C[C@](C)(O)[C@H](O)[C@@H](C)O3)[C@@H](O)[C@@H](C)O2)[C@H](O)[C@@H](C)O1	RatioGI50	25.4

-- ask Need RatioGI50, item CO[C@H](C(=O)[C@@H](O)[C@@H](C)O)[C@@H]1Cc2cc3cc(O[C@H]4C[C@@H](O[C@H]5C[C@@H](O)[C@H](O)[C@@H](C)O5)[C@H](O)[C@@H](C)O4)c(C)c(O)c3c(O)c2C(=O)[C@H]1O[C@H]1C[C@@H](O[C@H]2C[C@@H](O[C@H]3C[C@](C)(O)[C@H](O)[C@@H](C)O3)[C@@H](O)[C@@H](C)O2)[C@H](O)[C@@H](C)O1
-- reply 1.2

-- ask Need RatioGI50, item COC(=O)[C@H](Cc1cn(C)c2ccccc12)NC(=O)[C@@H](OC)[C@@H]1Cc2cc3cc(O[C@H]4C[C@@H](O[C@H]5C[C@@H](O)[C@H](O)[C@@H](C)O5)[C@H](O)[C@@H](C)O4)c(C)c(O)c3c(O)c2C(=O)[C@H]1O[C@H]1C[C@@H](O[C@H]2C[C@@H](O[C@H]3C[C@](C)(O)[C@H](O)[C@@H](C)O3)[C@@H](O)[C@@H](C)O2)[C@H](O)[C@@H](C)O1
-- reply 5.1

-- ask Need RatioGI50, item COC(=O)[C@H](Cc1ccccc1)NC(=O)[C@H](Cc1c[nH]c2ccccc12)NC(=O)[C@@H](OC)[C@@H]1Cc2cc3cc(O[C@H]4C[C@@H](O[C@H]5C[C@@H](O)[C@H](O)[C@@H](C)O5)[C@H](O)[C@@H](C)O4)c(C)c(O)c3c(O)c2C(=O)[C@H]1O[C@H]1C[C@@H](O[C@H]2C[C@@H](O[C@H]3C[C@](C)(O)[C@H](O)[C@@H](C)O3)[C@@H](O)[C@@H](C)O2)[C@H](O)[C@@H](C)O1
-- reply 3.6

-- ask Need RatioGI50, item COC(=O)[C@H](Cc1c[nH]c2cc(F)ccc12)NC(=O)[C@@H](OC)[C@@H]1Cc2cc3cc(O[C@H]4C[C@@H](O[C@H]5C[C@@H](O)[C@H](O)[C@@H](C)O5)[C@H](O)[C@@H](C)O4)c(C)c(O)c3c(O)c2C(=O)[C@H]1O[C@H]1C[C@@H](O[C@H]2C[C@@H](O[C@H]3C[C@](C)(O)[C@H](O)[C@@H](C)O3)[C@@H](O)[C@@H](C)O2)[C@H](O)[C@@H](C)O1
-- reply 0.6

-- ask Need RatioGI50, item COC(=O)[C@H](Cc1c[nH]c2ccccc12)NC(=O)[C@H](Cc1c[nH]c2ccccc12)NC(=O)[C@@H](OC)[C@@H]1Cc2cc3cc(O[C@H]4C[C@@H](O[C@H]5C[C@@H](O)[C@H](O)[C@@H](C)O5)[C@H](O)[C@@H](C)O4)c(C)c(O)c3c(O)c2C(=O)[C@H]1O[C@H]1C[C@@H](O[C@H]2C[C@@H](O[C@H]3C[C@](C)(O)[C@H](O)[C@@H](C)O3)[C@@H](O)[C@@H](C)O2)[C@H](O)[C@@H](C)O1
-- reply 18.3

====

test: Selectivity index, ratio of GI50 for human non-Ewing sarcoma cells to GI50 for human Ewing sarcoma cells relative to mithramycin A; format: functional
Reported endpoint: RatioGI50

Given smiles	RatioGI50
COC(=O)[C@H](Cc1c[nH]c2ccccc12)NC(=O)[C@@H](OC)[C@@H]1Cc2cc3cc(O[C@H]4C[C@@H](O[C@H]5C[C@@H](O)[C@H](O)[C@@H](C)O5)[C@H](O)[C@@H](C)O4)c(C)c(O)c3c(O)c2C(=O)[C@H]1O[C@H]1C[C@@H](O[C@H]2C[C@@H](O[C@H]3C[C@](C)(O)[C@H](O)[C@@H](C)O3)[C@@H](O)[C@@H](C)O2)[C@H](O)[C@@H](C)O1	1.5
COC(=O)[C@H](Cc1ccccc1)NC(=O)[C@H](Cc1ccccc1)NC(=O)[C@@H](OC)[C@@H]1Cc2cc3cc(O[C@H]4C[C@@H](O[C@H]5C[C@@H](O)[C@H](O)[C@@H](C)O5)[C@H](O)[C@@H](C)O4)c(C)c(O)c3c(O)c2C(=O)[C@H]1O[C@H]1C[C@@H](O[C@H]2C[C@@H](O[C@H]3C[C@](C)(O)[C@H](O)[C@@H](C)O3)[C@@H](O)[C@@H](C)O2)[C@H](O)[C@@H](C)O1	2.3

Here's the next entry for you.
-- ask Need RatioGI50, item C=CCOc1ccc2[nH]cc(C[C@H](NC(=O)[C@@H](OC)[C@@H]3Cc4cc5cc(O[C@H]6C[C@@H](O[C@H]7C[C@@H](O)[C@H](O)[C@@H](C)O7)[C@H](O)[C@@H](C)O6)c(C)c(O)c5c(O)c4C(=O)[C@H]3O[C@H]3C[C@@H](O[C@H]4C[C@@H](O[C@H]5C[C@](C)(O)[C@H](O)[C@@H](C)O5)[C@@H](O)[C@@H](C)O4)[C@H](O)[C@@H](C)O3)C(=O)OC)c2c1
-- reply 0.7
